Cited source for all entries: patent US20090123536A1

PROCEDURE SUMMARY: Solubility of losartan as a function of pH
Format: physicochemical
CONDITION CONTEXT: water, simulated gastric fluid; pH 2.0, 37° C.
PROPERTY MEASURED: solubility (µg/mL)
Numbers only, in µg/mL.

Q) Determine its reported solubility: CCCCc1nc(Cl)c(CO)n1Cc1ccc(-c2ccccc2-c2nn[nH]n2)cc1
A) 600

###

PROCEDURE SUMMARY: Solubility of losartan as a function of pH
Assay type: physicochemical
CONDITION CONTEXT: water, simulated gastric fluid; pH 1.4, 37° C.
PROPERTY MEASURED: solubility (µg/mL)
Answers are plain numbers, in µg/mL.

Q) Determine its reported solubility: CCCCc1nc(Cl)c(CO)n1Cc1ccc(-c2ccccc2-c2nn[nH]n2)cc1
A) 1000

###

PROCEDURE SUMMARY: Solubility of losartan as a function of pH
Type: physicochemical
CONDITION CONTEXT: water, aqueous buffer; pH 6.8, 37° C.
PROPERTY MEASURED: solubility (µg/mL)
Numbers only, in µg/mL.

Q) Determine its reported solubility: CCCCc1nc(Cl)c(CO)n1Cc1ccc(-c2ccccc2-c2nn[nH]n2)cc1 [losartan]
A) 10000

###

PROCEDURE SUMMARY: Solubility of losartan as a function of pH
Format: physicochemical
CONDITION CONTEXT: water, aqueous buffer; pH 5.0, 37° C.
PROPERTY MEASURED: solubility

Q) Determine its reported solubility: CCCCc1nc(Cl)c(CO)n1Cc1ccc(-c2ccccc2-c2nn[nH]n2)cc1
A) 300 µg/mL

###

PROCEDURE SUMMARY: Solubility of losartan as a function of pH
Format: physicochemical
CONDITION CONTEXT: water, aqueous buffer; pH 3.0, 37° C.
PROPERTY MEASURED: solubility

Q) Determine its reported solubility: CCCCc1nc(Cl)c(CO)n1Cc1ccc(-c2ccccc2-c2nn[nH]n2)cc1
A) 100 µg/mL
